# test-details: Brain levels of J147 after oral administration in Basis suspension
# Format: in vivo, Adult Wister Rats
# details: Wistar, rat, brain, po, 20 mg/kg, oral 20 mg/kg in Basis suspension, PO_B satellite; 4 h; mean of Group 1 and 2; read-out: Brain Actual Conc. Mean
quantity-kind: concentration at 4 h
A complete answer gives the number followed by the unit.

Measured concentration at 4 h, COc1cccc(/C=N/N(C(=O)C(F)(F)F)c2ccc(C)cc2C)c1 : 20.6 ng/g

====

# test-details: Plasma levels of J147 after oral administration in Basis suspension
# Type: in vivo, Adult Wister Rats
# details: Wistar, rat, plasma, po, 20 mg/kg, oral 20 mg/kg in Basis suspension; 1 h; mean of rats; read-out: Plasma Conc. Mean
# Protocol: Plasma samples obtained during surgery in J147-treated rats and 3 control rats were measured for circulating levels of J147. Results of pharmacokinetic measures of both plasma and brain levels of J147 in rats following oral administration of J147 in basis suspension at 20 mg/kg and also following intravascular administration at 5 mg/kg are shown in Table 2A-C below. […]
quantity-kind: concentration at 1 h

Measured concentration at 1 h, COc1cccc(/C=N/N(C(=O)C(F)(F)F)c2ccc(C)cc2C)c1 [J147] : 8.19 ng/mL
